# Tgt: T1, human TGFβ2 (human, UniProt P61812 303-414)
# T1 construct: also called TGFβ2 homodimer
# T1 sequence: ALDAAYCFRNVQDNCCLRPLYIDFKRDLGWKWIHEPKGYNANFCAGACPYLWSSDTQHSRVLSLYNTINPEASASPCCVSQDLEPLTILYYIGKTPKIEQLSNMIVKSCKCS
# Protocol: Biacore off-rate vs wt GC1008, 50 nM
Parameter kd var/kd wt: see the listing below.
Response field accepts a number only; no unit should be typed.

Example binders with recorded kd var/kd wt:
binder="E74W (antibody, V domains shown, GC1008 IgG4 variant) VH: QVQLVQSGAEVKKPGSSVKVSCKASGYTFSSNVISWVRQAPGQGLEWMGGVIPIVDIANYAQRFKGRVTITADWSTSTTYMELSSLRSEDTAVYYCASTLGLVLDAMDYWGQGTLVTVSS VL: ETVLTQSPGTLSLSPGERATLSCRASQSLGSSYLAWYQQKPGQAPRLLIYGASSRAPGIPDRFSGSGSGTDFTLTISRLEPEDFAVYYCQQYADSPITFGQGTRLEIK" measurement_kind="kd var/kd wt" obs_value=0.3
binder="Y27D (antibody, V domains shown, GC1008 IgG4 variant) VH: QVQLVQSGAEVKKPGSSVKVSCKASGDTFSSNVISWVRQAPGQGLEWMGGVIPIVDIANYAQRFKGRVTITADESTSTTYMELSSLRSEDTAVYYCASTLGLVLDAMDYWGQGTLVTVSS VL: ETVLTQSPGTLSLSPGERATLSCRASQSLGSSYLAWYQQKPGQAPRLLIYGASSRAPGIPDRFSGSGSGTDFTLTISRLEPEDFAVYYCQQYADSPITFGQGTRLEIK" measurement_kind="kd var/kd wt" obs_value=1.3

Now consider the entry below.
Q: For the binder N32A (antibody, V domains shown, GC1008 IgG4 variant) VH: QVQLVQSGAEVKKPGSSVKVSCKASGYTFSSAVISWVRQAPGQGLEWMGGVIPIVDIANYAQRFKGRVTITADESTSTTYMELSSLRSEDTAVYYCASTLGLVLDAMDYWGQGTLVTVSS VL: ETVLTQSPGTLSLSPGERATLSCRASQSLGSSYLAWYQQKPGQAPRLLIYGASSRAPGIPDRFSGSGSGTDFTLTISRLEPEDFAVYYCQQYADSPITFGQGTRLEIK , give its measured kd var/kd wt value.
Ans: 1.4
